- assay_text: qHTS assay to identify small molecule agonists of the AP-1 signaling pathway (AID 1159526); note: % is set by controls: 0 for no effect and ±100 for the full control effect
- measurement_setup: ME-180 (cervical carcinoma) AP-1-bla reporter, beta-lactamase FRET ratio, 5 h; series mostly up to 76.8 µM
Results filed as inconclusive are left out. The source made the active and inactive calls. Calls come from the whole dose curve.
measurement_label: activation

Look over these answered cases.
>  <compound>
COc1ccccc1[N+](=O)[O-]

>  <activation>
inactive

$$$$
>  <compound>
CCCCCCCCCCCCCC(=O)O

>  <activation>
inactive

$$$$
>  <compound>
COc1ccc2cc3[n+](cc2c1OC)CCc1cc2c(cc1-3)OCO2

>  <activation>
inactive

$$$$
>  <compound>
Nc1cccc(C(F)(F)F)c1

>  <activation>
inactive

$$$$
>  <compound>
CCCOC(=O)NCCCN(C)C

>  <activation>
inactive

$$$$

Incoming: Name the recorded activation for CCOC(=O)c1ccc(O)cc1 .
Outgoing: inactive

Incoming: Name the recorded activation for CCCCCC(C)=O .
Outgoing: inactive

Incoming: Name the recorded activation for Cc1ccc(C)c(S(=O)(=O)O)c1 .
Outgoing: inactive

* * *

- assay_text: Caspase-3/7 induction in HepG2 cells by small molecules, qHTS cell viability counter screen (AID 1346981); note: nearly all actives have a fitted effect of over 30% in size
- measurement_setup: CellTiter-Fluor fluorescence, 17 h; series mostly up to 92.4 µM
Inconclusive results are not listed. Calls of active or inactive are those of the source. Calls follow the shape of the dose curve; as a rule, active = well fitted cell-killing curve with a large enough effect in the repeat runs; inconclusive = weak or mixed curves, or effect the other way; inactive = flat fitted curve, though single readings scatter.
The reply should name one outcome from active, inactive

Incoming: What outcome does the record of this test show for CCCCCCCCO ?
Outgoing: inactive

Incoming: What outcome does the record of this test show for O=c1n(CCCN2CCN(c3cccc(Cl)c3)CC2)nc2ccccn12 ?
Outgoing: inactive

Incoming: What outcome does the record of this test show for CC(=O)C(C)C ?
Outgoing: inactive

Incoming: What outcome does the record of this test show for C=CC(=O)NCOCCCC ?
Outgoing: inactive

Incoming: What outcome does the record of this test show for OCC(O)CS (stereo not drawn) ?
Outgoing: inactive

Incoming: What outcome does the record of this test show for CCN(CC)CCNC(=O)c1ccc(N)cc1 ?
Outgoing: inactive

Incoming: What outcome does the record of this test show for COc1cc(NC(=O)CC(C)=O)c(OC)cc1Cl ?
Outgoing: inactive

Incoming: What outcome does the record of this test show for CC(O)CNCC(C)O (stereo not drawn) ?
Outgoing: inactive

Incoming: What outcome does the record of this test show for CC(=O)OC[C@H]1O[C@@](COC(C)=O)(O[C@H]2O[C@H](COC(C)=O)[C@@H](OC(C)=O)[C@H](OC(C)=O)[C@H]2OC(C)=O)[C@@H](OC(C)=O)[C@@H]1OC(C)=O ?
Outgoing: inactive

Incoming: What outcome does the record of this test show for CS(=O)(=O)c1ccc(Cl)cc1 ?
Outgoing: inactive

Incoming: What outcome does the record of this test show for NC(=O)c1ncn([C@@H]2O[C@H](CO)[C@@H](O)[C@H]2O)n1 ?
Outgoing: inactive

Incoming: What outcome does the record of this test show for CCOC(=O)CC(=O)OCC ?
Outgoing: inactive

Incoming: What outcome does the record of this test show for O=C(c1ccccc1)c1ccc(O)c(O)c1O ?
Outgoing: active

* * *

- target: Nuclear receptor subfamily 1 group I member 2 (Rattus norvegicus) (UniProt Q9R1A7)
- Sequence (Q9R1A7 whole entry, looked up): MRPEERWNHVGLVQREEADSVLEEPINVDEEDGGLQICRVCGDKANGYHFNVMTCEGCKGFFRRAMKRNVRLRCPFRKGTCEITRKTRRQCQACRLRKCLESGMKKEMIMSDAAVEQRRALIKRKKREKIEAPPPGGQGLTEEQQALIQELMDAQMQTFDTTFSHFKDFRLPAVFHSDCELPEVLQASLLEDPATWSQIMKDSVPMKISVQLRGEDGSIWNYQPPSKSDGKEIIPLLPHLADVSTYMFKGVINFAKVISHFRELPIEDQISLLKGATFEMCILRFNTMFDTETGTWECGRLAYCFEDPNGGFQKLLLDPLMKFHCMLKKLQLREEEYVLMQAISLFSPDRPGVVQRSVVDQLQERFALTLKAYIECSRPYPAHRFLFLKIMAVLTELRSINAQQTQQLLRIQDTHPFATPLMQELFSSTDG
- assay_text: Rat pregnane X receptor (rPXR) activation by small molecules, qHTS assay (AID 1346983); note: % is set by controls: 0 for no effect and ±100 for the full control effect; nearly all actives have a fitted effect of over 20% in size
- measurement_setup: rPXR luciferase reporter cells, One-Glo luminescence, 24 h; active compounds read high
Inconclusive results are not listed.
measurement_label: max activation (%)
Answer with a number only, understood to be in %.

Incoming: Name the recorded max activation for OB(O)O .
Outgoing: -0.586

Incoming: Name the recorded max activation for O=c1n(CCCN2CCN(c3cccc(Cl)c3)CC2)nc2ccccn12 .
Outgoing: -1.08

Incoming: Name the recorded max activation for CCCCCCCC(=O)O .
Outgoing: 0.66

Incoming: Name the recorded max activation for NCCNCCNCCN .
Outgoing: -2.83

Incoming: Name the recorded max activation for CCOC(=O)c1ccc(O)cc1 .
Outgoing: -2.61

Incoming: Name the recorded max activation for OCc1ccc(Cl)cc1Cl .
Outgoing: -2.12

Incoming: Name the recorded max activation for CC(=O)OC[C@H]1O[C@@](COC(C)=O)(O[C@H]2O[C@H](COC(C)=O)[C@@H](OC(C)=O)[C@H](OC(C)=O)[C@H]2OC(C)=O)[C@@H](OC(C)=O)[C@@H]1OC(C)=O .
Outgoing: -1.94

Incoming: Name the recorded max activation for OC[C@H]1O[C@@H](Oc2ccc(O)cc2)[C@H](O)[C@@H](O)[C@@H]1O .
Outgoing: -0.143
